- EXPERIMENTAL PROTOCOL: Liver microsomal stability assay, rat
- Format: in vitro ADME
- TEST CONTEXT: rat, liver microsomes, Metabolic stability, % remaining of RK-701, Rat; Time 5; replicate values
RECORDED METRIC: remaining at 5 min, 1 µM (%)
Report the figure in % without appending any unit label.

Please give the measured remaining at 5 min, 1 µM for this compound: Cc1c(C(=O)NC(CCC2CC2)C(=O)Nc2ccc(C#N)cc2)[nH]c2c1C(=O)CC(C)(C)C2 (stereo not shown)
89.1

---

- EXPERIMENTAL PROTOCOL: Pharmacokinetic (PK) assay
- Format: in vivo, mice
- TEST CONTEXT: male, Crl:CD1 ICR, mouse, ip; mice, plasma, single intraperitoneal 25 mg/kg
RECORDED METRIC: Cmax (µM)
Report the figure in µM without appending any unit label.

Please give the measured Cmax for this compound: Cc1c(C(=O)NC(CCC2CC2)C(=O)Nc2ccc(C#N)cc2)[nH]c2c1C(=O)CC(C)(C)C2 (stereo not shown) [RK-701]
42.4

---

- EXPERIMENTAL PROTOCOL: Cell viability assay (WST-8), HUDEP-2
- Format: cell-based, human
- TEST CONTEXT: human, HUDEP-2 cells, 0.0137174 μM; control (0 μM) = 100
The entries below are paired with their reported viability at 0.0137174 μM.
Report the figure in % without appending any unit label.

Examples with their reported viability at 0.0137174 μM follow.
>  <COMPOUND>
COc1cc2c(NC3CCN(C(C)C)CC3)nc(N3CCC(F)(F)CC3)nc2cc1OCCCN1CCCC1

>  <UNIT DESCRIPTOR>
%

>  <viability at 0.0137174 μM>
87.4

$$$$
>  <COMPOUND>
COc1cc2c(NC3CCN(C(C)C)CC3)nc(C3CCCCC3)nc2cc1OCCCN1CCCC1

>  <UNIT DESCRIPTOR>
%

>  <viability at 0.0137174 μM>
96.8

$$$$

Attention now shifts to the item below.
Please give the measured viability at 0.0137174 μM for this compound: Cc1c(C(=O)NC(CCC2CC2)C(=O)Nc2ccc(C#N)cc2)[nH]c2c1C(=O)CC(C)(C)C2 (stereo not drawn)
99.9

---

- EXPERIMENTAL SYSTEM: G9a SET domain (Homo sapiens)
- Construct: the human G9a SET domain (residues 913–1193) was synthesized using the E. coli cell-free synthesis method; made in house; host or cells: E. coli cell-free synthesis
- Sequence (Q96KQ7 913-1193): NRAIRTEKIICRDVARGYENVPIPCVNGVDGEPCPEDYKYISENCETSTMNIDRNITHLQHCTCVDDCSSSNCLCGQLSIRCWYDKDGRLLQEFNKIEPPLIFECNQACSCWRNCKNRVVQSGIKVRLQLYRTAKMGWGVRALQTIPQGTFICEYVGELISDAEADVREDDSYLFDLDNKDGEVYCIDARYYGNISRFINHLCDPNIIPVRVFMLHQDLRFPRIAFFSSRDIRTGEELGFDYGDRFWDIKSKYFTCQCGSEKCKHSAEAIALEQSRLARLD
- EXPERIMENTAL PROTOCOL: Surface plasmon resonance (SPR)
- Format: binding
- TEST CONTEXT: earlier SPR conditions, peer review file; read-out: Kd before re-analysis
RECORDED METRIC: Kd

Please give the measured Kd for this compound: Cc1c(C(=O)NC(CCC2CC2)C(=O)Nc2ccc(C#N)cc2)[nH]c2c1C(=O)CC(C)(C)C2 (stereo not shown) [RK-701]
2.4 µM

---

- EXPERIMENTAL SYSTEM: PRDM9 (Homo sapiens)
- Construct: purchased Reaction Biology
- Sequence (Q9NQV7 whole entry): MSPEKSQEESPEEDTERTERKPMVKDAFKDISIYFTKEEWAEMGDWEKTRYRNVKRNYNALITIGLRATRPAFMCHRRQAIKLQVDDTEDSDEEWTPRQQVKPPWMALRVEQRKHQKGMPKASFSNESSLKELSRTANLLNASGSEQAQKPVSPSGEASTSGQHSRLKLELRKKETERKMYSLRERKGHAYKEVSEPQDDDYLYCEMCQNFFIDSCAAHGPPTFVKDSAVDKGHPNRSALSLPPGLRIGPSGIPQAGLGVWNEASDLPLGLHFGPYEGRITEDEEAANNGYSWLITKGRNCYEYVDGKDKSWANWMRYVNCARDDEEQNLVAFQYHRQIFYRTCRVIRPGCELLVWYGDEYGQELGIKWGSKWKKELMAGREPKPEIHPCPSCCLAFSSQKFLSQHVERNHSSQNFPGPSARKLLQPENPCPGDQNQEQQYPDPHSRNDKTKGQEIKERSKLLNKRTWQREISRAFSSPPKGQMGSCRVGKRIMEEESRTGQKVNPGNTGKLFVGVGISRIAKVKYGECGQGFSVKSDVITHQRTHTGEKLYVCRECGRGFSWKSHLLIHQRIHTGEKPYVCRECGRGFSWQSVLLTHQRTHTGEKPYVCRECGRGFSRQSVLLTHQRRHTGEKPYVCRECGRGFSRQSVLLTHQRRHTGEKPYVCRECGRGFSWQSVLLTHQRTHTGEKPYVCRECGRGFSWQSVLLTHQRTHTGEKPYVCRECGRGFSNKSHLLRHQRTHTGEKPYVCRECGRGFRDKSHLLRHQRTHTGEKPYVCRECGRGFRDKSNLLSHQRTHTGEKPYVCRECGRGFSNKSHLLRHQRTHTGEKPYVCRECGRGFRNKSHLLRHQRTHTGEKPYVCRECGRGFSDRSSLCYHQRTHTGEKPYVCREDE
- EXPERIMENTAL PROTOCOL: Radioisotope-based methyltransferase assay (selectivity)
- Format: biochemical
- TEST CONTEXT: IC50, PRDM9; RK-701 in duplicate
RECORDED METRIC: pIC50
Schema: pIC50 number; meaning minus log10 of the concentration expressed in molar units.

Please give the measured pIC50 for this molecule: CN1C(=O)[C@@]23C[C@]4([C@]56C[C@@]78SS[C@@](CO)(C(=O)N7[C@H]5Nc5ccccc56)N(C)C8=O)c5ccccc5N[C@@H]4N2C(=O)[C@]1(CO)SS3 [Chaetocin, reference compound]
4.87

---

- EXPERIMENTAL SYSTEM: NSD2 (T1150A) (Homo sapiens, UniProt O96028, T1150A)
- Sequence (O96028 whole entry T1150A): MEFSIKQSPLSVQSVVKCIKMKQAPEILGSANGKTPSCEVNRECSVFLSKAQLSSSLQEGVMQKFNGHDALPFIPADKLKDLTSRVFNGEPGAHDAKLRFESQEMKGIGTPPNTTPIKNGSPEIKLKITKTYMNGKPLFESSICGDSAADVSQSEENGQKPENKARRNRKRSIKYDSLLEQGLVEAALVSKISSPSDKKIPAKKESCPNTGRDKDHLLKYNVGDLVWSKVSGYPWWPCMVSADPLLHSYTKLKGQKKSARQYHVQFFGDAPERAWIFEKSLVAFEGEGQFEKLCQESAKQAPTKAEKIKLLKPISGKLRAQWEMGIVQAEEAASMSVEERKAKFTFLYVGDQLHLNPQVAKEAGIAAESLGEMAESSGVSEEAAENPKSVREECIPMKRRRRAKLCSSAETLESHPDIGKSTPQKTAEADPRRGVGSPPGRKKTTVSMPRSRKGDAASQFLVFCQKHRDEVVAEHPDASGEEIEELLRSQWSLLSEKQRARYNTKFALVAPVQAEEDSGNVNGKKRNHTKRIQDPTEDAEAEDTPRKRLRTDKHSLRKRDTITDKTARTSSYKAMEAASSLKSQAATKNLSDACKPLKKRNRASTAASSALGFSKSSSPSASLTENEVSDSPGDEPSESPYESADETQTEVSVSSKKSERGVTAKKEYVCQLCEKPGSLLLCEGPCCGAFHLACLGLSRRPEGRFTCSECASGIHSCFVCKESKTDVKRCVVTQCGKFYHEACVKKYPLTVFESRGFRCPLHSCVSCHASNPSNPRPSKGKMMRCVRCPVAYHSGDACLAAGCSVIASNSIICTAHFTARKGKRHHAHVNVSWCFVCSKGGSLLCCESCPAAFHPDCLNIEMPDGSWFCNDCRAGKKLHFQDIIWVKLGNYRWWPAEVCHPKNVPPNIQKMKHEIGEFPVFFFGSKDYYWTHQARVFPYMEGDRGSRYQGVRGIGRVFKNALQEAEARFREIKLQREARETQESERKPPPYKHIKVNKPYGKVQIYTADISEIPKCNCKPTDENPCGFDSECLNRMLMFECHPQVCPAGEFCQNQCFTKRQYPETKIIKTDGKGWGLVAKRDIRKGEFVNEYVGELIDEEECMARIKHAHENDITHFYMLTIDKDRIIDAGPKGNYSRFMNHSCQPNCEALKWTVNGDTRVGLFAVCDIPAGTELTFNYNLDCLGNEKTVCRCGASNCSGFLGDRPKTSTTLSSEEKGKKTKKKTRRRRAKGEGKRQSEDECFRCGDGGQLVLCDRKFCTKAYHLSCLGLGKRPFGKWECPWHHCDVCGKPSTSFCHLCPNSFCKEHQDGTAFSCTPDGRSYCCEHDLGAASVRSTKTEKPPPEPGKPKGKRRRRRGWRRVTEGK
pIC50: −log10 of the molar value.
RECORDED METRIC: pIC50

Item: Cc1c(C(=O)NC(CCC2CC2)C(=O)Nc2ccc(C#N)cc2)[nH]c2c1C(=O)CC(C)(C)C2 (stereo not shown) Test system: NSD2 (T1150A) (Homo sapiens, UniProt O96028, T1150A) Read-out: pIC50 Value: ?
< 4.00

---

- EXPERIMENTAL PROTOCOL: Cell viability assay (WST-8), HUDEP-2
- Type: cell-based, human
- TEST CONTEXT: human, HUDEP-2 cells, 3.33333 μM; control (0 μM) = 100
- Method: A WST-8 (2-(2-methoxy-4-nitrophenyl)-3-(4-nitrophenyl)-5-(2,4-disulfophenyl)-2H-tetrazolium) assay using a Cell Counting Kit-8 (DOJINDO) was performed to measure cell viability using an EnSpire microplate reader (PerkinElmer).
RECORDED METRIC: viability at 3.33333 μM (%)
Report the figure in % without appending any unit label.

>  <COMPOUND>
Cc1c(C(=O)NC(CCC2CC2)C(=O)Nc2ccc(C#N)cc2)[nH]c2c1C(=O)CC(C)(C)C2 (centres unmarked)

>  <UNIT DESCRIPTOR>
%

>  <viability at 3.33333 μM>
94.3

$$$$

Attention now shifts to the item below.
Please give the measured viability at 3.33333 μM for this compound: COc1cc2c(NC3CCN(C(C)C)CC3)nc(N3CCC(F)(F)CC3)nc2cc1OCCCN1CCCC1
54.8

---

- EXPERIMENTAL SYSTEM: SET8 (Homo sapiens, UniProt Q9NQR1)
- Construct: purchased Reaction Biology
- Sequence (Q9NQR1 whole entry): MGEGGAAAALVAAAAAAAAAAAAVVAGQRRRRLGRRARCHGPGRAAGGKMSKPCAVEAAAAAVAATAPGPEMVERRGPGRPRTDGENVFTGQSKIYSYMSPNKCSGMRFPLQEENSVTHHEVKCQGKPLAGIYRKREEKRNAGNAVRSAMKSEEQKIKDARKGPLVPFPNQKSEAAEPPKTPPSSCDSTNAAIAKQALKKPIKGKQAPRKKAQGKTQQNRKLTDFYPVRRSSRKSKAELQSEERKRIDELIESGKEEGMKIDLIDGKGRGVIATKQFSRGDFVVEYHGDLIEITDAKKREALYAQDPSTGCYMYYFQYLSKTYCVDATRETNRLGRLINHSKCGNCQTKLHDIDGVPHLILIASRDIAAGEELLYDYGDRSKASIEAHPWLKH
- EXPERIMENTAL PROTOCOL: Radioisotope-based methyltransferase assay (selectivity)
- Type: biochemical
- TEST CONTEXT: SET8, 1 μM SAM
pIC50: −log10 of the molar value.
RECORDED METRIC: pIC50

Please give the measured pIC50 for this compound: Cc1c(C(=O)NC(CCC2CC2)C(=O)Nc2ccc(C#N)cc2)[nH]c2c1C(=O)CC(C)(C)C2 (stereo not shown)
< 4.00

---

The entries below are paired with their reported viability at 0.123457 μM.
- EXPERIMENTAL PROTOCOL: Cell viability assay (WST-8), HUDEP-2
- Format: cell-based, human
- TEST CONTEXT: human, HUDEP-2 cells, 0.123457 μM; control (0 μM) = 100
Report the figure in % without appending any unit label.

Examples with their reported viability at 0.123457 μM follow.
>  <COMPOUND>
COc1cc2c(NC3CCN(C(C)C)CC3)nc(C3CCCCC3)nc2cc1OCCCN1CCCC1

>  <RECORDED METRIC>
viability at 0.123457 μM

>  <QUANTITATIVE RESULT>
98.7

$$$$
>  <COMPOUND>
COc1cc2c(NC3CCN(C(C)C)CC3)nc(N3CCC(F)(F)CC3)nc2cc1OCCCN1CCCC1

>  <RECORDED METRIC>
viability at 0.123457 μM

>  <QUANTITATIVE RESULT>
92.1

$$$$

Attention now shifts to the item below.
Please give the measured viability at 0.123457 μM for this compound: Cc1c(C(=O)NC(CCC2CC2)C(=O)Nc2ccc(C#N)cc2)[nH]c2c1C(=O)CC(C)(C)C2 (stereo not drawn)
97.4

---

- EXPERIMENTAL PROTOCOL: Caco-2 permeability assay
- Type: in vitro ADME
- TEST CONTEXT: human, Caco-2, A to B; replicate values; read-out: Papp A to B
RECORDED METRIC: Papp A→B (×10⁻⁶ cm/s)
Report the figure in ×10⁻⁶ cm/s without appending any unit label.

Please give the measured Papp A→B for this molecule: Cc1c(C(=O)NC(CCC2CC2)C(=O)Nc2ccc(C#N)cc2)[nH]c2c1C(=O)CC(C)(C)C2 (stereo not shown)
4.8

---

- EXPERIMENTAL PROTOCOL: Aqueous solubility
- Assay type: physicochemical
- TEST CONTEXT: phosphate buffer, pH 6.8, pH6.8; read-out: Solubility in PBS
RECORDED METRIC: solubility at 1 h (µM)
Report the figure in µM without appending any unit label.

Please give the measured solubility at 1 h for this compound: Cc1c(C(=O)NC(CCC2CC2)C(=O)Nc2ccc(C#N)cc2)[nH]c2c1C(=O)CC(C)(C)C2 (stereo not shown) [RK-701]
26.3

---

- EXPERIMENTAL SYSTEM: UniProt P26358
- Sequence (P26358 whole entry): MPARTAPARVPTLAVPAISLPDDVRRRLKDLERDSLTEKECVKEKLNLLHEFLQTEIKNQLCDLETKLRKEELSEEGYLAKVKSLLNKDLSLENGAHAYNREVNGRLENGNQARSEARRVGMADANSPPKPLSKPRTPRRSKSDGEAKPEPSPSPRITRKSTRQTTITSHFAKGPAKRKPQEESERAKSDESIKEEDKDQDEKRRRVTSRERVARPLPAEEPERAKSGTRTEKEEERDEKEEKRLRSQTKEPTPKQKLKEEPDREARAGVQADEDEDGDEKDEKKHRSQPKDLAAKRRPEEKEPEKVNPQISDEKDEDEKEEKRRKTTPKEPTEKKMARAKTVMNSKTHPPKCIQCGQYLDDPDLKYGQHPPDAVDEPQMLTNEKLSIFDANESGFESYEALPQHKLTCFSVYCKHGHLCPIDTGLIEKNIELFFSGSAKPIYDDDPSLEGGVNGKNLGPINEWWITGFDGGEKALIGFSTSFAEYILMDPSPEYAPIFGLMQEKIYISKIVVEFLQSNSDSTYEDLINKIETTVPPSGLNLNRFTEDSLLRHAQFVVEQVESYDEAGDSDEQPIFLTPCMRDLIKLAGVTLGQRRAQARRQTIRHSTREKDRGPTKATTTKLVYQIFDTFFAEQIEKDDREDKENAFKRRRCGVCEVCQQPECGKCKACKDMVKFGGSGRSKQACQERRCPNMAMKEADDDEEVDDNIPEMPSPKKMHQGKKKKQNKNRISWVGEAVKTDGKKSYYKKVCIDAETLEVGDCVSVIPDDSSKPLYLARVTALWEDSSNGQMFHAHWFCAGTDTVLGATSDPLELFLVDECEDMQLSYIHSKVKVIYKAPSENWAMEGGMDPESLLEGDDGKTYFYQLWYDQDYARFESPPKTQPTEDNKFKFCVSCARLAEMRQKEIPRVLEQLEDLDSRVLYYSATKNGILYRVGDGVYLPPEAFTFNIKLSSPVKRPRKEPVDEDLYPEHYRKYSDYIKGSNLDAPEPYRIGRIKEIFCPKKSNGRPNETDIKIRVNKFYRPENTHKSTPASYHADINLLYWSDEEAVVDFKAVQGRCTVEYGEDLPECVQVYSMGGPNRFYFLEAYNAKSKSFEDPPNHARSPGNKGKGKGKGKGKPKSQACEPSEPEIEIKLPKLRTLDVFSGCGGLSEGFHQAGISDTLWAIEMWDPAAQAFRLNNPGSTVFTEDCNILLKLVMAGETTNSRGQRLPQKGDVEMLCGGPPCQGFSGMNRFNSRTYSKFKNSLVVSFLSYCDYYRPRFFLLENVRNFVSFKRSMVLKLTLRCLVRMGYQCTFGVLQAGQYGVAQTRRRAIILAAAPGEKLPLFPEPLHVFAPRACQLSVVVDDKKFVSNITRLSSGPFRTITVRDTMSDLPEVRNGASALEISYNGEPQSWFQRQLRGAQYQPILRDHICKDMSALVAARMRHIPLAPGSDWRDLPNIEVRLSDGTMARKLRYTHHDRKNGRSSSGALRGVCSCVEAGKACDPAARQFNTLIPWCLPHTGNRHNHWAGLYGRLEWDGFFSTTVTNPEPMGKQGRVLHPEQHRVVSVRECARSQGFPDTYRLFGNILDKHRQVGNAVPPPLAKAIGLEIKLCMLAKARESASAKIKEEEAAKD
- EXPERIMENTAL PROTOCOL: biochemical
pIC50: −log10 of the molar value.
RECORDED METRIC: pIC50

Item: Cc1c(C(=O)NC(CCC2CC2)C(=O)Nc2ccc(C#N)cc2)[nH]c2c1C(=O)CC(C)(C)C2 (stereo not shown) Test system: UniProt P26358 Read-out: pIC50 Value: ?
< 4.00

---

- EXPERIMENTAL SYSTEM: SET7/9 (Homo sapiens, UniProt Q8WTS6)
- Construct: purchased Reaction Biology
- Sequence (Q8WTS6 whole entry): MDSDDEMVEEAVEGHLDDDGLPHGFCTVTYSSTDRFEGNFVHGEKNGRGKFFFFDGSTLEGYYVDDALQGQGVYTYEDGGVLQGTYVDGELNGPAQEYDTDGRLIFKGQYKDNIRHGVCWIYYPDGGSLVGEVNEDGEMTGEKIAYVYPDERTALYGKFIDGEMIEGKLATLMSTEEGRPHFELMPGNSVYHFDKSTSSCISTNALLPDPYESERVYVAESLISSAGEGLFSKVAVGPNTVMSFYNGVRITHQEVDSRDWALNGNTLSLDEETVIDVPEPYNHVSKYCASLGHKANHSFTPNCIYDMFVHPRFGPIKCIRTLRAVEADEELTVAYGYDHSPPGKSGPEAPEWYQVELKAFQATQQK
- EXPERIMENTAL PROTOCOL: Radioisotope-based methyltransferase assay (selectivity)
- Format: biochemical
- TEST CONTEXT: SET7/9; RK-701 in duplicate
RECORDED METRIC: pIC50
Schema: pIC50 number; meaning minus log10 of the concentration expressed in molar units.

Please give the measured pIC50 for this compound: Nc1ncnc2c1ncn2[C@@H]1O[C@H](CSCC[C@H](N)C(=O)O)[C@@H](O)[C@H]1O [SAH, S-(5'-Adenosyl)-L-homocysteine, reference compound]
4.09
